The measurements presented in this section are drawn from the Immune Epitope Database (IEDB).

- Target System: HLA-A*69:01
- Test Protocol: IEDB peptide-MHC binding, purified MHC/direct/fluorescence; filed as Kd, often an IC50 or EC50 that approximates it; bounds were set here for any values at or beyond the usual limits of such assays
- Measurement Setup: source organism: Entamoeba histolytica
Measured Quantity: pKd
The meaning of pKd here: minus log10 of the concentration in molar units.

Prompt line: Give HLA-A*69:01 pKd for the following sequence: KLMPGSIYV
Response line: 6.43

* * *

- Target System: HLA-A*26:01
- Test Protocol: IEDB peptide-MHC binding, purified MHC/competitive/radioactivity; filed as Kd, often an IC50 or EC50 that approximates it; bounds were set here for any values at or beyond the usual limits of such assays
- Measurement Setup: source organism: Lymphocytic choriomeningitis virus (strain Armstrong)
Measured Quantity: Kd

Prompt line: Find the measured Kd of GPDIYKGVY and report it.
Response line: ≥ 77.9 µM

* * *

- Target System: HLA-C*15:02
- Test Protocol: IEDB peptide-MHC binding, purified MHC/direct/fluorescence; filed as Kd, often an IC50 or EC50 that approximates it; bounds were set here for any values at or beyond the usual limits of such assays
- Measurement Setup: source organism: Listeria monocytogenes EGD-e
Measured Quantity: Kd (nM)
Give just the number in nM; leave the unit off.

Prompt line: Find the measured Kd of RMMGKTNPL and report it.
Response line: 16

* * *

- Target System: HLA-B*27:05
- Test Protocol: IEDB peptide-MHC binding, purified MHC/direct/fluorescence; filed as Kd, often an IC50 or EC50 that approximates it; bounds were set here for any values at or beyond the usual limits of such assays
- Measurement Setup: source organism: Corynebacterium glutamicum
Measured Quantity: Kd

Prompt line: Find the measured Kd of FLPGQYMNI and report it.
Response line: ≥ 20 µM

* * *

- Target System: HLA-B*57:01
- Test Protocol: IEDB peptide-MHC binding, purified MHC/competitive/fluorescence; filed as Kd, often an IC50 or EC50 that approximates it; bounds were set here for any values at or beyond the usual limits of such assays
- Measurement Setup: source organism: Burkholderia orbicola
Measured Quantity: Kd

Prompt line: Find the measured Kd of RIEQLYPFA and report it.
Response line: ≥ 20 µM

* * *

- Target System: HLA-A*11:01
- Test Protocol: IEDB peptide-MHC binding, purified MHC/direct/fluorescence; filed as Kd, often an IC50 or EC50 that approximates it; bounds were set here for any values at or beyond the usual limits of such assays
- Measurement Setup: source organism: Yersinia pestis
Measured Quantity: Kd

Prompt line: Find the measured Kd of VPRVHNQPQ and report it.
Response line: ≥ 20 µM

* * *

- Target System: HLA-B*51:01
- Test Protocol: IEDB peptide-MHC binding, purified MHC/competitive/fluorescence; filed as Kd, often an IC50 or EC50 that approximates it; bounds were set here for any values at or beyond the usual limits of such assays
- Measurement Setup: source organism: Vibrio cholerae 2740-80
Measured Quantity: Kd

Prompt line: Find the measured Kd of VQPWLMVDV and report it.
Response line: ≥ 20 µM

* * *

- Target System: HLA-A*26:01
- Test Protocol: IEDB peptide-MHC binding, purified MHC/competitive/radioactivity; filed as Kd, often an IC50 or EC50 that approximates it; bounds were set here for any values at or beyond the usual limits of such assays
- Measurement Setup: source organism: Dengue virus 1 Singapore/S275/1990
Measured Quantity: Kd (nM)
Give just the number in nM; leave the unit off.

Prompt line: Find the measured Kd of EVTARWLWGF and report it.
Response line: 32.7
